Each item that follows carries a reported IC50.
Target or test system: GP IIb IIIa (Homo sapiens, UniProt P05106+P08514)
Sequence (P08514 32-887 limits assumed): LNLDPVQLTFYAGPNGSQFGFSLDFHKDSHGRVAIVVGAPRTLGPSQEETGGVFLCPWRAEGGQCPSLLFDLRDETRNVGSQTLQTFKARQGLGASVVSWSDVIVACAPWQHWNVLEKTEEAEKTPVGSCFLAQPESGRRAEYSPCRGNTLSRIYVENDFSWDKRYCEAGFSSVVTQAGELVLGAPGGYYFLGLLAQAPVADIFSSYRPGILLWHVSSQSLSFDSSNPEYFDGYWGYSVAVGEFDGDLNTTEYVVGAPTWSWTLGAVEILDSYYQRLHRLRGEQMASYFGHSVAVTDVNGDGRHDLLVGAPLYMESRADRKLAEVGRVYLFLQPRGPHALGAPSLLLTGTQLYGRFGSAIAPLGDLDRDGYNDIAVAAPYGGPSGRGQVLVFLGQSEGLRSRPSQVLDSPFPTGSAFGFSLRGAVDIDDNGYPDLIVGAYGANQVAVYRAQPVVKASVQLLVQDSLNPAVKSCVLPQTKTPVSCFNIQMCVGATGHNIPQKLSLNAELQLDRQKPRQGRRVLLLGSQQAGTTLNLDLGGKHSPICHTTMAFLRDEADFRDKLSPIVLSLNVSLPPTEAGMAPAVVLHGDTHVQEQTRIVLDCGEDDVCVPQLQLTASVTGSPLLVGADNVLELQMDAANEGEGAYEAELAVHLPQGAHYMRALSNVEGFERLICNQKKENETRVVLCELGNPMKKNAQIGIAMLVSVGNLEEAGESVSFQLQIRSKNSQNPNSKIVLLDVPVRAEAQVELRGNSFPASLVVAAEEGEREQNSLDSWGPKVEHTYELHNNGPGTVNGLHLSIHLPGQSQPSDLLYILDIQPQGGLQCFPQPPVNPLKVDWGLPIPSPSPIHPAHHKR
Sequence (P08514 891-1039 partner limits assumed): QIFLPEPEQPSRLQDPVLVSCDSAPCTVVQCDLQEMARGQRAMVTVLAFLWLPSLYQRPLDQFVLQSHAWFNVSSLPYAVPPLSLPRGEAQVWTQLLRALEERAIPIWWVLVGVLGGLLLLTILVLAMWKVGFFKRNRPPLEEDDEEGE
Sequence (P05106 27-788): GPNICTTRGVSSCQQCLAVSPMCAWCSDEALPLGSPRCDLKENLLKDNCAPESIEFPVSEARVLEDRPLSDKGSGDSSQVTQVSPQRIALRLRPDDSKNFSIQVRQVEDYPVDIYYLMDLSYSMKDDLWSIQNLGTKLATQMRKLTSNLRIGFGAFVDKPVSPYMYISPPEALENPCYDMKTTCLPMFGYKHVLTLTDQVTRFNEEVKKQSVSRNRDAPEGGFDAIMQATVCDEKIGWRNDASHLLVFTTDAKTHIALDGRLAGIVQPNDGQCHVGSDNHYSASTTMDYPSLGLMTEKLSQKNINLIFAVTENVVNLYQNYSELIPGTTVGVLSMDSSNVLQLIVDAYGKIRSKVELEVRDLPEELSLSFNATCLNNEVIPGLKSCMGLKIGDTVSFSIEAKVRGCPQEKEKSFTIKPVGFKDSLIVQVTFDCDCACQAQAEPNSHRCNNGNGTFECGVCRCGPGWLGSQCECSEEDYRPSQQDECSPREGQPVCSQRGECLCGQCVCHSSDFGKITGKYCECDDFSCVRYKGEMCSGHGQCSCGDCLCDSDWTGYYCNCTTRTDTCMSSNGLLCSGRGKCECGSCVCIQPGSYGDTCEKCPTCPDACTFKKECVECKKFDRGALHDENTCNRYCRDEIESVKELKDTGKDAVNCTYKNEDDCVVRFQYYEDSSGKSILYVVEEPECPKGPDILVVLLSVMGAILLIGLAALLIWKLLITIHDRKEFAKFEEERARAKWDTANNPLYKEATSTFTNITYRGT
Assay notes: Fibrinogen-GP IIb IIIa Receptor ELISA Binding Assay
Set-up: from tissue; host or cells: outdated human platelets
Run conditions: purified human platelet GP IIb IIIa, fibrinogen-coated plates; read-out: ELISA IC50 Fibrinogen GPIIb IIIa
Where a SMILES comes first, the peptide text is derived from it. Bridges are numbered along the chain shown (N, C = ends). [ ]: non-standard residue; d: D form. Pen = CC(C)(S)[C@H](N)C(=O)O; Ava = NCCCCC(=O)O

// solved cases for IC50 follow
N=C(N)NCCC[C@@H]1NC(=O)[C@@H](Cc2ccc(O)cc2)NC(=O)CSC[C@@H](C(=O)NCCCCC(=O)O)NC(=O)[C@H](CC(=O)O)NC(=O)CNC1=O [7/28] ({CH2CO}-[dY]RGDC[Ava]-OH; thioether N-5) : 70 nM
CC1(C)SCC(=O)N[C@H](Cc2ccc(O)cc2)C(=O)N[C@@H](CCCCN)C(=O)NCC(=O)N[C@@H](CC(=O)O)C(=O)N[C@@H]1C(=O)N[C@@H](CCCCN)C(N)=O [7/17] ({CH2CO}-[dY]KGD[Pen]K-NH2; thioether N-5) : 238 nM

Moving on to the next compound.
### Prompt May I ask what IC50 has been recorded for N=C(N)NCCC[C@H](NC(=O)[C@@H]1CSCC(=O)N[C@H](Cc2ccc(O)cc2)C(=O)N[C@@H](CCCNC(=N)N)C(=O)NCC(=O)N[C@@H](CC(=O)O)C(=O)N1)C(N)=O [7/1] ({CH2CO}-[dY]RGDCR-NH2; thioether N-5) ?
### Response 10 nM

---

pIC50: recorded values
Target or test system: GP IIb IIIa (Homo sapiens, UniProt P05106+P08514)
Assay notes: Fibrinogen-GP IIb IIIa Receptor ELISA Binding Assay
Set-up: from tissue; host or cells: outdated human platelets
Run conditions: purified human platelet GP IIb IIIa, fibrinogen-coated plates; read-out: ELISA IC50 Fibrinogen GPIIb IIIa
Method: The method used is essentially that described in Nachman and Leung (J. Clin. Invest., 69:263-269 [1982]). The GP IIb IIIa is essentially purified as described in Fitzgerald et al., (Anal. Biochem. 151:169-177 [1985]). Outdated human platelets are washed 3 times with 10 mM tris-HCl, 150 mM NaCl (TBS), 1 mM EDTA, pH 7.5, and centrifuged at 2000×g to pellet cells. Cells are lysed in 5 pellet volumes of TBS, 1% Triton X-100, 1 mM Ca2 Cl2, and followed by centrifugation at 30,000×g. […]
*1 amine or outer side, *2 acyl side, *3 side chain or, on linkers, in order; H or OH if unused. Where a SMILES comes first, the peptide text is derived from it. Bridges are numbered along the chain shown (N, C = ends). [ ]: non-standard residue; d: D form. Ethylenediamine = C(CN[*:2])N[*:1]; Aad = N[C@@H](CCCC(=O)O)C(=O)O; Pen = CC(C)(S)[C@H](N)C(=O)O; dOrn = NCCC[C@@H](N)C(=O)O; Orn = NCCC[C@H](N)C(=O)O
Please report pIC50 as the negative decimal logarithm of the molar concentration, giving only the number.

### Prompt Given the entry CC1(C)SCC(=O)N[C@H](Cc2ccc(O)cc2)C(=O)N[C@@H](CCCCN)C(=O)NCC(=O)N[C@@H](CC(=O)O)C(=O)N[C@@H]1C(=O)N[C@@H](CCCNC(=N)N)C(N)=O [7/16] ({CH2CO}-[dY]KGD[Pen]R-NH2; thioether N-5) , report its measured pIC50.
### Response 6.82

### Prompt Quick one: pIC50 of N=C(N)NCCC[C@@H]1NC(=O)[C@@H](Cc2ccc(O)cc2)NC(=O)CSC[C@@H](C(=O)O)NC(=O)[C@H](CC(=O)O)NC(=O)CNC1=O [7/46] ({CH2CO}-[dY]RGDC-OH; thioether N-5) ?
### Response 8.49

### Prompt Given N=C(N)NCCC[C@@H]1NC(=O)[C@@H](Cc2ccc(O)cc2)NC(=O)CSC[C@@H](C(=O)N[C@H](CCCN)C(N)=O)NC(=O)[C@H](CC(=O)O)NC(=O)CNC1=O [7/6] ({CH2CO}-[dY]RGDC[dOrn]-NH2; thioether N-5) , state its recorded pIC50.
### Response 7.98

### Prompt # pIC50 lookup, item N=C(N)NCCC[C@@H]1NC(=O)[C@@H](Cc2ccc(O)cc2)NC(=O)CSC[C@@H](C(=O)NCCN)NC(=O)[C@H](CC(=O)O)NC(=O)CNC1=O [8/23] ({CH2CO}-[dY]RGDC-Ethylenediamine; thioether N-5)
### Response 7.85

### Prompt I'd like to know its pIC50. The compound in question is N=C(N)NCCC[C@@H]1NC(=O)[C@@H](Cc2ccc(O)cc2)NC(=O)CSC[C@@H](C(=O)N[C@@H](CCCN)C(N)=O)NC(=O)[C@H](CC(=O)O)NC(=O)CNC1=O [7/5] ({CH2CO}-[dY]RGDC[Orn]-NH2; thioether N-5)
### Response 7.96

### Prompt Look at this compound and give its reported pIC50. N=C(N)NCCC[C@@H]1NC(=O)[C@@H](Cc2ccc(O)cc2)NC(=O)C(CCCCN)SC[C@@H](C(=O)O)NC(=O)[C@H](CC(=O)O)NC(=O)CNC1=O (single isomer, unassigned) [9/10]
### Response 8.28

### Prompt Tell me the measured pIC50 of N=C(N)NCCC[C@@H]1NC(=O)[C@@H](Cc2ccc(O)cc2)NC(=O)CSC[C@@H](C(=O)N[C@H](CCCNC(=N)N)C(N)=O)NC(=O)[C@H](CC(=O)O)NC(=O)CNC1=O [7/2] ({CH2CO}-[dY]RGDC[dR]-NH2; thioether N-5) , please.
### Response 7.87

### Prompt Dear colleague, I am looking for the recorded pIC50 of the following compound: N=C(N)NCCC[C@H](NC(=O)[C@@H]1CCCC(=O)N[C@H](Cc2ccc(O)cc2)C(=O)N[C@@H](CCCNC(=N)N)C(=O)NCC(=O)N[C@@H](CC(=O)O)C(=O)N1)C(N)=O [10/19] ([dY]RGD[Aad]R-NH2; lactam N-5)
### Response 8.05

### Prompt Reported pIC50 for N=C(N)NCCC[C@@H]1NC(=O)[C@@H](Cc2ccc(O)cc2)NC(=O)CSC[C@@H](C(=O)N[C@@H](CCCCN)C(N)=O)NC(=O)[C@H](CC(=O)O)NC(=O)CNC1=O [7/3] ({CH2CO}-[dY]RGDCK-NH2; thioether N-5) : what is it?
### Response 7.77
